Below, each entry is listed with its recorded relative β-galactosidase activity, inducer Rs.
System: tetA promoter (PtetA)-lacZ reporter in E. coli KM3
Type: cell-based
Conditions: Table 4; rimsulfuron 20 μg/ml (20 ppm); 48 hrs at 30° C.

Some solved cases for reference:
L1-7: library L1 hit, sulfonylurea-responsive TetR(B) variant, SEQ ID NO: 4 (protein, Sulfonylurea responsive repressor L1-07) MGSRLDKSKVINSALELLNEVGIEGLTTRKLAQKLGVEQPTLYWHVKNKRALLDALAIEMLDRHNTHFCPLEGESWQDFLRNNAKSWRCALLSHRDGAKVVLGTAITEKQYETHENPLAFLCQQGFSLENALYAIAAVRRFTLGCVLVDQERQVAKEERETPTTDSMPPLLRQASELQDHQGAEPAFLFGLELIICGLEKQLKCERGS; 0.2
L1-20: library L1 hit, sulfonylurea-responsive TetR(B) variant, SEQ ID NO: 6 (protein, Sulfonylurea responsive repressor L1-20) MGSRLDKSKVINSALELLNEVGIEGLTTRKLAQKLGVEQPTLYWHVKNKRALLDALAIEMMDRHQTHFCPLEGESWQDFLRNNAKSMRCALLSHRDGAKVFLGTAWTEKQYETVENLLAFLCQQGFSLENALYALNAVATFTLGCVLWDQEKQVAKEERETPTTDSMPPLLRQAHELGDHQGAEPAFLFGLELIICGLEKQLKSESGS; 2.0

Enquiry: Tell me the measured relative β-galactosidase activity, inducer Rs of L1-44: library L1 hit, sulfonylurea-responsive TetR(B) variant, SEQ ID NO: 13 (protein, Sulfonylurea responsive repressor L1-44) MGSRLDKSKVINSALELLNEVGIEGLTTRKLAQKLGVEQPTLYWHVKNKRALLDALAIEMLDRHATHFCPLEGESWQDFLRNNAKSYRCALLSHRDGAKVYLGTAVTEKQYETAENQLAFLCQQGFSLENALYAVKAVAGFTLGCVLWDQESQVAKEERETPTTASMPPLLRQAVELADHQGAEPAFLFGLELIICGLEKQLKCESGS , please.
Return: 0.3

Enquiry: Tell me the measured relative β-galactosidase activity, inducer Rs of L1-2: library L1 hit, sulfonylurea-responsive TetR(B) variant, SEQ ID NO: 3 (protein, Sulfonylurea responsive repressor L1-02) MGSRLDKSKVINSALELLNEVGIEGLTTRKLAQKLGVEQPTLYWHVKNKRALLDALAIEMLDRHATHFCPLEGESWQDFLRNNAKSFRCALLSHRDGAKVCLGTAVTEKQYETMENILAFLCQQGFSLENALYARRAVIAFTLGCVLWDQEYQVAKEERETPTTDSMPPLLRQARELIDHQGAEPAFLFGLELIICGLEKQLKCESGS , please.
Return: 1.3
